Target: CKIδ wild type (Homo sapiens, UniProt P48730)
Sequence (P48730 whole entry): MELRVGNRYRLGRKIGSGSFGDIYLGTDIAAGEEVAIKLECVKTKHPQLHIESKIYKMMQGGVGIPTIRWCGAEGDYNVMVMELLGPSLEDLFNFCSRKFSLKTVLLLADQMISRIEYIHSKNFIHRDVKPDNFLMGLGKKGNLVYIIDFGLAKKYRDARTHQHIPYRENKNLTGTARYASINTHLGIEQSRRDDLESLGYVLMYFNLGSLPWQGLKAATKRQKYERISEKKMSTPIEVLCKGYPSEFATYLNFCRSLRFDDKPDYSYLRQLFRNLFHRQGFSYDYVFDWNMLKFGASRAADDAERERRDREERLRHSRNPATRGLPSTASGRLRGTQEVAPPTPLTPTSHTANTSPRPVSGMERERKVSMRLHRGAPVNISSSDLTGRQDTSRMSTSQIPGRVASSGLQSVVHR
pIC50: −log10 of the molar value.
Readout Type: pIC50

{"Molecule": "Cn1cc(-c2ccnc3c2C(=O)N(C2CCCC2)C3)c(-c2ccc(F)cc2)n1", "pIC50": 8.05}
{"Molecule": "Cn1cc(-c2ccnc3c2CCC3O)c(-c2ccc(F)cc2)n1 (stereo not drawn)", "pIC50": 7.55}
{"Molecule": "Cn1cc(-c2ccnc3c2C(=O)N(CC2CCOC2)C3)c(-c2ccc(F)cc2)n1 (stereo not drawn)", "pIC50": 7.45}
{"Molecule": "COCCN1Cc2nccc(-c3cn(C)nc3-c3ccc(F)cc3)c2C1=O", "pIC50": 7.17}
{"Molecule": "Cn1cc(-c2ccnc3c2C(=O)N(CCC#N)C3)c(-c2ccc(F)cc2)n1", "pIC50": 7.95}
{"Molecule": "Cc1ccc(CN2Cc3nccc(-c4cn(C)nc4-c4ccc(F)cc4)c3C2=O)cn1", "pIC50": 7.72}

a: Cn1cc(-c2ccnc3c2CCC3)c(-c2ccc(F)cc2)n1
b: CC(C)CN1Cc2nccc(-c3cn(C)nc3-c3ccc(F)cc3)c2C1=O
c: CC(C)OC(=O)CN1Cc2nccc(-c3cn(C)nc3-c3ccc(F)cc3)c2C1=O
d: Cn1cc(-c2ccnc3c2C(=O)OC3)c(-c2ccc(F)cc2)n1
e: Cn1cc(-c2ccnc3c2C(=O)NC3)c(-c2ccc(F)cc2)n1
Inquiry: Please rank these molecules by pIC50 in descending order. Labels, ranked as asked.
Reply text: d, e, a, b, c

I: Cn1cc(CN2Cc3nccc(-c4cn(C)nc4-c4ccc(F)cc4)c3C2=O)cn1
II: COC[C@H]1CCC[C@H]1N1Cc2nccc(-c3cn(C)nc3-c3ccc(F)cc3)c2C1=O
Inquiry: Param metric = pIC50; output whichever of I , II has the minimum value. Respond using the label that marks the chosen record.
Reply text: II
(II: 7.15, I: 7.65)

A: Cn1cc(-c2ccnc3c2C(=O)N(Cc2cccc(C#N)c2)C3)c(-c2ccc(F)cc2)n1
B: Cn1cc(-c2ccnc3c2C(=O)N([C@H]2CCOC2=O)C3)c(-c2ccc(F)cc2)n1
Inquiry: Pick one: A or B . Which one has the lower reported pIC50? State your choice using its label.
Reply text: B
